molecular target: acetylcholine receptor; experiment: SPR, receptor immobilised on chip, peptide at 10 uM
Measured Binding affinity (RU) values are reported for all entries that follow.
Note: unit RU is implicit; provide only the numeric part.

// worked examples, Binding affinity (RU) included
KPCEKK [6mer-2-946] | 21
KKMVKR [6mer-2-899] | 13
KPPAKK [6mer-2-936] | 21

Kindly review the next binder as well.
Item under review: RYCFKR [6mer-2-931] . Reported Binding affinity (RU)?
29
